Tested on: blackgrass
method: Test B pre/postemergence blackgrass
Assay type: in vivo, Alopecurus myosuroides
assay.conditions: Preemergence, Rate 250 g/ha; scale 0 (no effect) to 10 (complete control)
Experimental: […] At the same time, these crop and weed species were also treated with postemergence applications of test chemicals formulated in the same manner. […] Treated plants and controls were maintained in a greenhouse for twelve to sixteen days, after which all species were compared to controls and visually evaluated. […]
Entries and their Blackgrass plant response rating values follow.
Lab note: write the figure by itself, no unit.

[[record]]
compound = "COC1CCC(Cn2c(=O)on(C(=O)N(c3ccc(Cl)cc3)C(C)C)c2=O)=NO1 (stereo not shown) [Compound 760]"
readout_name = "Blackgrass plant response rating"
reported = 6

[[record]]
compound = "C=C(Cn1c(=O)on(C(=O)N(c2ccc(F)cc2)C(C)C)c1=O)C(=O)OC [Compound 732]"
readout_name = "Blackgrass plant response rating"
reported = 0

[[record]]
compound = "CCOC(CC)n1c(=O)on(C(=O)N(c2ccc(F)cc2F)C(C)C)c1=O (stereo not shown) [Compound 774]"
readout_name = "Blackgrass plant response rating"
reported = 0


API: the following record is the query input.
Look at this compound and give its reported Blackgrass plant response rating. CC(C)N(C(=O)n1oc(=O)n(CBr)c1=O)c1ccccc1 [Compound 755]
0

----------
Entries and their Plant response rating, Sugarbeets values follow.
Test system: sugar beet
method: Test B pre/postemergence sugar beet
Assay type: in vivo, Beta vulgaris
assay.conditions: Postemergence, Rate 125 g/ha; scale of 0 to 10 where 0 is no effect and 10 is complete control
Lab note: write the figure by itself, no unit.

Look over these answered cases.
[[record]]
molecule = "CCCCn1c(=O)on(C(=O)N(c2ccc(F)cc2F)C(C)C)c1=O"
reported = 3

[[record]]
molecule = "COC(=O)C(C)n1c(=O)on(C(=O)N(c2ccc(F)cc2)C(C)C)c1=O (stereo not shown)"
reported = 0

[[record]]
molecule = "CC(C)N(C(=O)n1oc(=O)n(CCC(F)(F)F)c1=O)c1ccccc1"
reported = 2


API: the following record is the query input.
Look at this molecule and give its reported Plant response rating, Sugarbeets. CCC(C)n1c(=O)on(C(=O)N(c2ccccc2)C(C)C)c1=O (stereo not shown)
0

----------
Entries and their Redroot pigweed plant response rating values follow.
Tested on: pigweed
method: Test B pre/postemergence pigweed
Assay type: in vivo, Amaranthus retroflexus
assay.conditions: Preemergence, Rate 500 g/ha; scale 0 to 10 (0 no effect, 10 complete control)

Look over these answered cases.
[[record]]
compound = "Cc1nsc(C)c1-n1c(=O)on(C(=O)N(c2ccc(F)cc2)C(C)C)c1=O [Compound 157]"
measurement_target = "pigweed"
reported = 0

[[record]]
compound = "COc1ccccc1Cn1c(=O)on(C(=O)N(c2ccccc2)C(C)C)c1=O [Compound 104]"
measurement_target = "pigweed"
reported = 4

[[record]]
compound = "CC(C)N(C(=O)n1oc(=O)n([C@@H](C)c2ccccc2)c1=O)c1ccc(Cl)cc1 [Compound 174]"
measurement_target = "pigweed"
reported = 9

[[record]]
compound = "CC(C)N(C(=O)n1oc(=O)n(-c2cnn(C)c2)c1=O)c1ccccc1 [Compound 123]"
measurement_target = "pigweed"
reported = 9


API: the following record is the query input.
Look at this compound and give its reported Redroot pigweed plant response rating. CCN(CC)C(=O)n1oc(=O)n(Cc2ccccc2)c1=O [Compound 152]
0
